Target: Serine/threonine-protein kinase ULK3 (Homo sapiens) (UniProt Q6PHR2)
Sequence (Q6PHR2 whole entry): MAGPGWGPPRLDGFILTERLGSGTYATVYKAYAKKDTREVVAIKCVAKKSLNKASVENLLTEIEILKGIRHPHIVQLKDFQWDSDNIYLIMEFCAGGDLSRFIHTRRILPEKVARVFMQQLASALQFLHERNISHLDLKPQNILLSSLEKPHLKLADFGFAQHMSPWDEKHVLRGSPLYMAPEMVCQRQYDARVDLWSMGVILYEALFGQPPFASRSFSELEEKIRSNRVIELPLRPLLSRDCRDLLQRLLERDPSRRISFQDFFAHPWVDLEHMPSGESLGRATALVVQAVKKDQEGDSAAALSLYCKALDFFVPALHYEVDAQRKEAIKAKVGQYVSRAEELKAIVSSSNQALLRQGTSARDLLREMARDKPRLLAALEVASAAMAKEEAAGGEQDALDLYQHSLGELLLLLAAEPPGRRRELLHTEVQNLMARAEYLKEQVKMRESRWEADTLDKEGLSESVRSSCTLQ
Details: at 10 µM
residual activity by entry:
metric: residual activity

> print(dat)
                            chemical.string  readout.value
1  CCn1cnc2c(Nc3cccc(Cl)c3)nc(N[C@@H]3CCCC[C@@H]3N)nc21             8%
2        O=C1Nc2ccc3ncsc3c2/C1=C/c1c[nH]cn1             7%
3  O=c1[nH]c2ccccc2n1C1CCN(Cc2ccc(-c3nc4cc5[nH]cnc5cc4nc3-c3ccccc3)cc2)CC1            95%
4          O=[N+]([O-])/C=C/c1ccc2c(c1)OCO2            91%
5  O=C1NC(=O)c2c1c1c3ccccc3n3c1c1c2c2ccccc2n1C1CCC3O1            58%
6  COc1cc(OC)c(/C=C2\C(=O)Nc3ccccc32)c(OC)c1            95%

----------
Biological target: Dual specificity protein kinase CLK3 (Homo sapiens) (UniProt P49761)
Sequence (P49761 whole entry, looked up): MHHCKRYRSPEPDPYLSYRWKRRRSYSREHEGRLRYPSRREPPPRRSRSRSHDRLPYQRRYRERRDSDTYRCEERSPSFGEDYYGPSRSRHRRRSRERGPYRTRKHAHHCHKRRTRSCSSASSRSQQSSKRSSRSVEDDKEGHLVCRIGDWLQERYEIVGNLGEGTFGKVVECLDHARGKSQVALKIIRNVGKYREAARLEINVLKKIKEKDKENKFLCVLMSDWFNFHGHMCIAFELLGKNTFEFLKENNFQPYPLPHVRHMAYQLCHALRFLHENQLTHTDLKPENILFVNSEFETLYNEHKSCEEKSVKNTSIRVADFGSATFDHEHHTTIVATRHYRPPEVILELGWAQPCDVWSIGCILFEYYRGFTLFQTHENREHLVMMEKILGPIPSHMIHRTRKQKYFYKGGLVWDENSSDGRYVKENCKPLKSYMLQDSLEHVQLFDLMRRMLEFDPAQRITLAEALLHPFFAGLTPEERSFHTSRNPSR
Details: at 10 µM
Reported values of residual activity for individual entries
metric: residual activity (%)

> print(dat)
                            chemical.string             metric  unit.name  readout.value
1        O=C1Nc2ccc3ncsc3c2/C1=C/c1c[nH]cn1  residual activity          %              3
2               O=C1c2ccccc2-c2nc3nnnn3nc21  residual activity          %            119
3  COC(=O)[C@@]1(O)C[C@H]2O[C@]1(C)n1c3ccccc3c3c4c(c5c6ccccc6n2c5c31)C(=O)NC4  residual activity          %             33
4  CCn1cnc2c(Nc3cccc(Cl)c3)nc(N[C@@H]3CCCC[C@@H]3N)nc21  residual activity          %             30
5  COc1cc2ncnc(Nc3ccc(OCc4ccccc4)cc3)c2cc1OC  residual activity          %             87

----------
Biological target: Insulin receptor-related protein (Homo sapiens) (UniProt P14616)
Sequence (P14616 27-742 limits assumed): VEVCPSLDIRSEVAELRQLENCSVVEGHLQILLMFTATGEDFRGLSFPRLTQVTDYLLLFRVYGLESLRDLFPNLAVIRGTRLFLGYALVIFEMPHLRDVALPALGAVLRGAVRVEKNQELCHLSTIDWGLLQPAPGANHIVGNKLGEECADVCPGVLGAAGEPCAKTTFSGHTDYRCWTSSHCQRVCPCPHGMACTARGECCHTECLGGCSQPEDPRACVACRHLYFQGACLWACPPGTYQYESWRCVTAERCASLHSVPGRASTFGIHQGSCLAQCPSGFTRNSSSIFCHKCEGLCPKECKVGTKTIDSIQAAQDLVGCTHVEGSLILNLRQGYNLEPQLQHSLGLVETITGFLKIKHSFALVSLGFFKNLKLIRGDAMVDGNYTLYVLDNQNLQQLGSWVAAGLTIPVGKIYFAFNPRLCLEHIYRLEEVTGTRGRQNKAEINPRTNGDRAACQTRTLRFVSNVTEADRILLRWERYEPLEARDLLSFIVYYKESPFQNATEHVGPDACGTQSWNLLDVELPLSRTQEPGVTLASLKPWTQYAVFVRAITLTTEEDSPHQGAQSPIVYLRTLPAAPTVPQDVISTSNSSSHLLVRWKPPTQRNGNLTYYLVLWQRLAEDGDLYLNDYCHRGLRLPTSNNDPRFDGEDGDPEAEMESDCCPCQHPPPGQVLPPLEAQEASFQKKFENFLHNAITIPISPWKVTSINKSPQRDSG
Sequence (P14616 747-1297 limits assumed): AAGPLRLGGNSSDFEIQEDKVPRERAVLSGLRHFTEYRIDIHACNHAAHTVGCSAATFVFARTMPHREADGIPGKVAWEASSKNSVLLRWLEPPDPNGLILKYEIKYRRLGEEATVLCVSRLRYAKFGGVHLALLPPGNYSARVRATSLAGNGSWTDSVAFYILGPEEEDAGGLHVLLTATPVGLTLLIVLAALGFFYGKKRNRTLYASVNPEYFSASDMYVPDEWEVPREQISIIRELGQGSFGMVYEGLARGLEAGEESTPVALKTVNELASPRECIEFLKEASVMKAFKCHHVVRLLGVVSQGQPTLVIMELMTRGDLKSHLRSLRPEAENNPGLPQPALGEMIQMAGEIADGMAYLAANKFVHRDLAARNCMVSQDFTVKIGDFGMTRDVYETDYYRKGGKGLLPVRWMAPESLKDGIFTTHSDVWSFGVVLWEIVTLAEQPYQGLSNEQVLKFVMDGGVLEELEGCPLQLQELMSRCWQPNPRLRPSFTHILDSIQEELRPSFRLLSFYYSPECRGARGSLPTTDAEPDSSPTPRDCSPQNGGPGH
Settings: at 1 µM
metric: residual activity (%)

> print(dat)
                            chemical.string             metric  readout.value
1          O=[N+]([O-])/C=C/c1ccc2c(c1)OCO2  residual activity            106
2  COc1cc(OC)c(/C=C2\C(=O)Nc3ccccc32)c(OC)c1  residual activity            101
3  O=c1[nH]c2ccccc2n1C1CCN(Cc2ccc(-c3nc4cc5[nH]cnc5cc4nc3-c3ccccc3)cc2)CC1  residual activity            124
4  COc1cc2ncnc(Nc3ccc(OCc4ccccc4)cc3)c2cc1OC  residual activity            125
5  COC(=O)[C@@]1(O)C[C@H]2O[C@]1(C)n1c3ccccc3c3c4c(c5c6ccccc6n2c5c31)C(=O)NC4  residual activity              6
6        CC(C)(C)c1cc(C=C(C#N)C#N)cc(Br)c1O  residual activity            105

----------
Target: Tyrosine-protein kinase HCK (Homo sapiens)
Details: at 1 µM
// boundary case: residual activity equal to 90% maps to Not met; strictly smaller maps to Met

> print(dat)
                                   compound  category.label
1  COC(=O)[C@@]1(O)C[C@H]2O[C@]1(C)n1c3ccccc3c3c4c(c5c6ccccc6n2c5c31)C(=O)NC4             Met
2  c1cc(-c2cnn3cc(-c4ccc(OCCN5CCCCC5)cc4)cnc23)ccn1             Met
3  COc1ccc2c(c[n+](C)c3c4cc5c(cc4ccc23)OCO5)c1OC         Not met
4  CCn1cnc2c(Nc3cccc(Cl)c3)nc(N[C@@H]3CCCC[C@@H]3N)nc21             Met
5  CC(C)[C@H](CO)Nc1nc(Nc2cccc(Cl)c2)c2ncn(C(C)C)c2n1             Met
6        CC(C)(C)c1cc(C=C(C#N)C#N)cc(Br)c1O         Not met
7  C[S+]([O-])c1ccc(-c2nc(-c3ccc(F)cc3)c(-c3ccncc3)[nH]2)cc1 (configuration not stated)         Not met
